# Tested on: P-glycoprotein
# testDescription: Permeability assessed as human P-glycoprotein-mediated transport across apical to basolateral side expressed in pig LLC-PK1 cells at 500 uM by liquid scintillation counting
# Type: ADME, cell-based
outcomeMeasure: Papp A→B at 500 µM (×10⁻⁶ cm/s)

* CC#CCn1c(N2CCC[C@@H](N)C2)nc2c1c(=O)n(Cc1nc(C)c3ccccc3n1)c(=O)n2C | 26.7

====

# measuredOn: OCTN1 (SLC22A4) (Homo sapiens, UniProt Q9H015)
# Sequence (Q9H015 whole entry): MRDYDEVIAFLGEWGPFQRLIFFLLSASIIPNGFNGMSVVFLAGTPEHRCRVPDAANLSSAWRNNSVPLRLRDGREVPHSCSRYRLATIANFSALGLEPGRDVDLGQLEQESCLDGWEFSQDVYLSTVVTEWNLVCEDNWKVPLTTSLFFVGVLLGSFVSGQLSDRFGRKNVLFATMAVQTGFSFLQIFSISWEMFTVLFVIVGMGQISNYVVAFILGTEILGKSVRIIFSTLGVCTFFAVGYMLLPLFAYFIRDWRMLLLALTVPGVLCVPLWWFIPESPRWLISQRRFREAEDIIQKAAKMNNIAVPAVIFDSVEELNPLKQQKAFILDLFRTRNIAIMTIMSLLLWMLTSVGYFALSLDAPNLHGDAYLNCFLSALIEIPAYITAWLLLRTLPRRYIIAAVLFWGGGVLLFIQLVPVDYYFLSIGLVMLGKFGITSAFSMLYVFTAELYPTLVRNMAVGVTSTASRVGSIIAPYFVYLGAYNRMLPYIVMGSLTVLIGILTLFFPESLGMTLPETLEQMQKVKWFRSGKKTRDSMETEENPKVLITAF
# testDescription: Inhibition of OCTN1 (unknown origin) expressed in HEK293 cells assessed as reduction of [3H]ergothioneine substrate uptake at 100 uM by liquid scintillation counting
# Assay type: cell-based
# conditionsUsed: HEK293 cells expressing OCTN1, probe [3H]ergothioneine
outcomeMeasure: inhibition at 100 µM (%)

* CC#CCn1c(N2CCC[C@@H](N)C2)nc2c1c(=O)n(Cc1nc(C)c3ccccc3n1)c(=O)n2C | 19.4

====

# Tested on: P-glycoprotein
# testDescription: Permeability assessed as human P-glycoprotein-mediated transport across apical to basolateral side expressed in pig LLC-PK1 cells by Transwell experiment/liquid scintillation counting
# Assay type: ADME, cell-based
outcomeMeasure: Km (µM)

- CC#CCn1c(N2CCC[C@@H](N)C2)nc2c1c(=O)n(Cc1nc(C)c3ccccc3n1)c(=O)n2C: 220

====

# Test system: P-glycoprotein
# testDescription: Permeability assessed as human P-glycoprotein-mediated transport of apical to basolateral side in pig LLC-PK1 cells by measuring nontransporter-related passive membrane permeability by Transwell experiment/liquid scintillation counting
# Type: ADME, cell-based
# conditionsUsed: read-out: permeability
outcomeMeasure: Papp A→B (×10⁻⁶ cm/s)

• CC#CCn1c(N2CCC[C@@H](N)C2)nc2c1c(=O)n(Cc1nc(C)c3ccccc3n1)c(=O)n2C [LINAGLIPTIN] = 27.3

====

# measuredOn: OCTN2 (Homo sapiens, UniProt O76082)
# Sequence (O76082 whole entry): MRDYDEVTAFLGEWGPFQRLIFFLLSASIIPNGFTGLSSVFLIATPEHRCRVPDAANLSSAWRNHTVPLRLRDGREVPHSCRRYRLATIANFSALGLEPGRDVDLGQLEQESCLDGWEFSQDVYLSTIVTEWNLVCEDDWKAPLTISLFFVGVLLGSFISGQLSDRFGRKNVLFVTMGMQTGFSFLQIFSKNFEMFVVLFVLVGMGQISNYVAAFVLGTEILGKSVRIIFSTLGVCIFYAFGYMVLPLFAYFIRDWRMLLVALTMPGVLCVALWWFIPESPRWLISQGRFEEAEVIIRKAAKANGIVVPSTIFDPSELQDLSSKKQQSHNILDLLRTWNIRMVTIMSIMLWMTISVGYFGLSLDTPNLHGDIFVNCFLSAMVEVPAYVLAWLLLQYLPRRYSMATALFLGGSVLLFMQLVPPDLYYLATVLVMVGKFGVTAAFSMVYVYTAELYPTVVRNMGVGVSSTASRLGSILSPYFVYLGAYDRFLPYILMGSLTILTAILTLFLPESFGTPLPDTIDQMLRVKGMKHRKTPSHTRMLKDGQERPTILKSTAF
# testDescription: Inhibition of OCTN2 (unknown origin) expressed in HEK293 cells assessed as reduction of [3H]carnitine substrate uptake at 1500 uM by liquid scintillation counting
# Type: cell-based
# conditionsUsed: HEK293 cells expressing OCTN2, probe [3H]carnitine
outcomeMeasure: inhibition at 1500 µM (%)

- C=C[C@H]1C[N@@]2CC[C@H]1C[C@@H]2[C@@H](O)c1ccnc2ccc(OC)cc12: 89.9

Values were extracted from ChEMBL document CHEMBL3525903.
